Molecular target: Septin-9 (Homo sapiens); note: in the data inactive means no Kd found up to 30 µM
Sequence (Q9UHD8 whole entry): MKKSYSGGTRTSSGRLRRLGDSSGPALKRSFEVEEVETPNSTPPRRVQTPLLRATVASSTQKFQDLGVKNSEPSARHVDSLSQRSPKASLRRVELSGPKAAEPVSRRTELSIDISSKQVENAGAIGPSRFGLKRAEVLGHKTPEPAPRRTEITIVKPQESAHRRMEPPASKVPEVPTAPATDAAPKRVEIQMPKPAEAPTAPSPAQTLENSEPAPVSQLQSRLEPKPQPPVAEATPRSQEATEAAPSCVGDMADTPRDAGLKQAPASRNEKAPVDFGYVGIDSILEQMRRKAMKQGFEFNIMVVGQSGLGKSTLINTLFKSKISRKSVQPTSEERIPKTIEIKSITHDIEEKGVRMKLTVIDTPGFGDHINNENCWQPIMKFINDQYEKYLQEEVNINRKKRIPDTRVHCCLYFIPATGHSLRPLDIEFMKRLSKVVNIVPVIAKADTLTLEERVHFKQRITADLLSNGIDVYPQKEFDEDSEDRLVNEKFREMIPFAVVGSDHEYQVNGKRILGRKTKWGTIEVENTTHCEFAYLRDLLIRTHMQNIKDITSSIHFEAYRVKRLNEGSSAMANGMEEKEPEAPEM
Activity calls are given as the source filed them.
endpoint name: Kd

In the examples that follow, each entry is paired with its recorded Kd.
{"columns": ["compound structure string", "Kd"],
 "data": [
  ["Cc1nc(Nc2n[nH]c3c2CN(C(=O)N[C@H](CN(C)C)c2ccccc2)C3(C)C)c2sccc2n1", "> 30 µM (inactive)"],
  ["O=C(Nc1cc(C(F)(F)F)cc(C(F)(F)F)c1)c1cc(Cl)ccc1O", "> 30 µM (inactive)"],
  ["Cc1cc(Nc2ncnc3ccc(NC4=NC(C)(C)CO4)cc23)ccc1Oc1ccn2ncnc2c1", "> 30 µM (inactive)"]
]}

**Q:** Short answer please: Kd, Septin-9 (Homo sapiens), entry CCNC(=O)C#Cc1ccc2c(c1)NC(=O)/C2=C(\Nc1ccc(CN(C)C)cc1)c1ccccc1
**A:** > 30 µM (inactive)

----------
The compounds below have reported Kd for Myosin light chain kinase, smooth muscle (Homo sapiens).
Active and inactive are the calls of the source.

In the examples that follow, each entry is paired with its recorded Kd.
{"columns": ["compound structure string", "system tested", "result"],
 "data": [
  ["COCc1c(-c2ccc(NC(=O)Nc3cc(C(F)(F)F)ccc3F)c(F)c2)c2c(N)ncnn2c1CN1CCOCC1", "Myosin light chain kinase, smooth muscle (Homo sapiens)", "> 30 µM (inactive)"],
  ["CCCCCCCCCCCCCCCCCCOP(=O)([O-])OC1CC[N+](C)(C)CC1", "Myosin light chain kinase, smooth muscle (Homo sapiens)", "> 30 µM (inactive)"],
  ["COc1ccc(S(=O)(=O)N(C(C)=O)c2ccccc2/C=C/c2cc[n+]([O-])cc2)cc1", "Myosin light chain kinase, smooth muscle (Homo sapiens)", "> 30 µM (inactive)"],
  ["CCS(=O)(=O)c1cccc(-c2cc(C(=O)NC3CCN(C)CC3)c(C)c3[nH]c4ncc(C)cc4c23)c1", "Myosin light chain kinase, smooth muscle (Homo sapiens)", "> 30 µM (inactive)"],
  ["Cc1nc(Nc2n[nH]c3c2CN(C(=O)N[C@H](CN(C)C)c2ccccc2)C3(C)C)c2sccc2n1", "Myosin light chain kinase, smooth muscle (Homo sapiens)", "> 30 µM (inactive)"],
  ["Cc1nc2cc(-n3ncc(C(=O)c4cc5ccccc5[nH]4)c3N)ccc2[nH]1", "Myosin light chain kinase, smooth muscle (Homo sapiens)", "> 30 µM (inactive)"]
]}

**Q:** Short answer please: Kd, Myosin light chain kinase, smooth muscle (Homo sapiens), entry Cc1cc(Nc2ncnc3ccc(NC4=NC(C)(C)CO4)cc23)ccc1Oc1ccn2ncnc2c1
**A:** > 30 µM (inactive)

**Q:** Short answer please: Kd, Myosin light chain kinase, smooth muscle (Homo sapiens), entry Cc1nc2cc(-c3nn(C(C)C)c4ncnc(N)c34)ccc2o1
**A:** > 30 µM (inactive)

**Q:** Short answer please: Kd, Myosin light chain kinase, smooth muscle (Homo sapiens), entry COCC(=O)NC/C=C/c1ccc2ncnc(Nc3ccc(Oc4ccc(C)nc4)c(C)c3)c2c1
**A:** > 30 µM (inactive)

----------
Molecular target: Mitogen-activated protein kinase 11 (Homo sapiens); note: in the data inactive means no Kd found up to 30 µM
Sequence (Q15759 whole entry): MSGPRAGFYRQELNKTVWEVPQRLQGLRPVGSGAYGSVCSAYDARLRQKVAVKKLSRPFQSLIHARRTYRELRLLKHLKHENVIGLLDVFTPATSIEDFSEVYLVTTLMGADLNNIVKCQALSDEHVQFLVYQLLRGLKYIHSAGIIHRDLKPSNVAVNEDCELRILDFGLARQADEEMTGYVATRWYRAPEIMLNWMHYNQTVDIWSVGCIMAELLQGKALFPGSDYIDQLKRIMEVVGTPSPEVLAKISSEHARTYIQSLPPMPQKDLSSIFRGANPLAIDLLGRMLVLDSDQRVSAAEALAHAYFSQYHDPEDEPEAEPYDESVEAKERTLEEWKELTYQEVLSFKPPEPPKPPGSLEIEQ
Activity calls are given as the source filed them.
Field 'call' accepts Y for active, N for inactive

**Q:** # lookup: test call for Cc1cnc(NC(=O)Nc2cc(Br)c(C)cc2OC[C@@H]2CNCCO2)cn1
**A:** N

**Q:** # lookup: test call for O=C(Cc1ccc(-c2ccc(OCCN3CCOCC3)cc2)cn1)NCc1ccccc1
**A:** N

**Q:** # lookup: test call for COCc1c(-c2ccc(NC(=O)Nc3cc(C(F)(F)F)ccc3F)c(F)c2)c2c(N)ncnn2c1CN1CCOCC1
**A:** N

**Q:** # lookup: test call for COc1c(OCCCN2CCOCC2)ccc2c1N=C(NC(=O)c1cnc(N)nc1)N1CCN=C21
**A:** N

**Q:** # lookup: test call for COc1cc2ncnc(Oc3cccc(NC(=O)Nc4cc(C(C)(C)C(F)(F)F)on4)c3)c2cc1OC
**A:** Y

**Q:** # lookup: test call for FC(F)(F)c1ccc(/C=C/c2nc(COc3ccc(CCCCn4ccnn4)cc3)co2)cc1
**A:** N

**Q:** # lookup: test call for C[C@@H](N)c1ccc(C(=O)Nc2ccnc3[nH]ccc23)cc1
**A:** N

**Q:** # lookup: test call for CC(C)c1cc(CNc2nc(Nc3cc(C4CC4)[nH]n3)cc(N3CCN(C)CC3)n2)on1
**A:** N

**Q:** # lookup: test call for Cc1csc(-c2nnc(Nc3ccc(Oc4ncccc4-c4ccnc(N)n4)cc3)c3ccccc23)c1
**A:** N

**Q:** # lookup: test call for O=C(Nc1nc2cccc(-c3ccc(CN4CCS(=O)(=O)CC4)cc3)n2n1)C1CC1
**A:** N

**Q:** # lookup: test call for C#Cc1cccc(Nc2ncnc3cc(OC)c(OCCCCCCC(=O)NO)cc23)c1
**A:** N

**Q:** # lookup: test call for CCn1cc(-c2ccnc3[nH]c(-c4cccc(CN(C)C)c4)cc23)c(-c2ccc(NC(=O)N(C)C)cc2)n1
**A:** N

**Q:** # lookup: test call for C[C@@H](NC(=O)c1ncnc(N)c1Cl)c1ncc(C(=O)Nc2cc(C(F)(F)F)c(Cl)cn2)s1
**A:** Y

**Q:** # lookup: test call for CCOc1cc2ncc(C#N)c(Nc3ccc(F)c(Cl)c3)c2cc1NC(=O)/C=C/CN(C)C
**A:** N

**Q:** # lookup: test call for CN1C/C=C/CCOc2cccc(c2)-c2ccnc(n2)Nc2cccc(c2)C1
**A:** N

**Q:** # lookup: test call for C[C@H]1CNCCCN1S(=O)(=O)c1cccc2cncc(F)c12
**A:** N

**Q:** # lookup: test call for NC1(c2ccc(-c3nc4ccn5c(=O)[nH]nc5c4cc3-c3ccccc3)cc2)CCC1
**A:** N

----------
Biological target: Mitogen-activated protein kinase 15 (Homo sapiens); note: in the data inactive means no Kd found up to 30 µM
Sequence (Q8TD08 whole entry): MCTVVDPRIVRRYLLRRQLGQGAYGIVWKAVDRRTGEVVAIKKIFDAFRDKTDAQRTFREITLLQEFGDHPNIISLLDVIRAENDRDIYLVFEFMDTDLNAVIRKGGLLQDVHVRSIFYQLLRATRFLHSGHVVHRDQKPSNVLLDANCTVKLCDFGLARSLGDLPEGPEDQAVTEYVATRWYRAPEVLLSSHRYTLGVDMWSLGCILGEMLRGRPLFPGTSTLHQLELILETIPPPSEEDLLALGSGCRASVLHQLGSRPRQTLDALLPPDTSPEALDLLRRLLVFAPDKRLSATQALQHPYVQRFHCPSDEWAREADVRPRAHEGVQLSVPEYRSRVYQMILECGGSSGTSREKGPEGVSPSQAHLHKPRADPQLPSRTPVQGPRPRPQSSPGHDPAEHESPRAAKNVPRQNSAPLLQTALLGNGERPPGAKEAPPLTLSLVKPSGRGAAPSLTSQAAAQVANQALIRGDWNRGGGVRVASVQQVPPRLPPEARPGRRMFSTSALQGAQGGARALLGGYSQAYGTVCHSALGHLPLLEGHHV
Counter-ions that a name gives are not always drawn. Active and inactive are the calls of the source.
Field 'call' accepts active, inactive

**Q:** # lookup: test call for Cc1nc2cc(-n3ncc(C(=O)c4cc5ccccc5[nH]4)c3N)ccc2[nH]1 [FGFR INHIBITOR DEBIO 1347]
**A:** inactive

**Q:** # lookup: test call for COCC(=O)NC/C=C/c1ccc2ncnc(Nc3ccc(Oc4ccc(C)nc4)c(C)c3)c2c1 [CP-724714]
**A:** inactive

**Q:** # lookup: test call for CO[C@H]1C[C@@H]2CC[C@@H](C)[C@@](O)(O2)C(=O)C(=O)N2CCCC[C@H]2C(=O)O[C@H]([C@H](C)C[C@@H]2CC[C@@H](O)[C@H](OC)C2)CC(=O)[C@H](C)/C=C(\C)[C@@H](O)[C@@H](OC)C(=O)[C@H](C)C[C@H](C)/C=C/C=C/C=C/1C [SIROLIMUS]
**A:** inactive

**Q:** # lookup: test call for CC(C)(C)c1nc(-c2cccc(NS(=O)(=O)c3c(F)cccc3F)c2F)c(-c2ccnc(N)n2)s1 [DABRAFENIB]
**A:** inactive

**Q:** # lookup: test call for CNC(=O)c1nn(C)c2c1C(C)(C)Cc1cnc(Nc3ccc(N4CCN(C)CC4)cc3)nc1-2 [MILCICLIB]
**A:** inactive

**Q:** # lookup: test call for COCc1c(-c2ccc(NC(=O)Nc3cc(C(F)(F)F)ccc3F)c(F)c2)c2c(N)ncnn2c1CN1CCOCC1
**A:** inactive

**Q:** # lookup: test call for NC1(c2ccc(-c3nc4ccn5c(=O)[nH]nc5c4cc3-c3ccccc3)cc2)CCC1 [MK-2206]
**A:** inactive

**Q:** # lookup: test call for CCS(=O)(=O)N1CCN(c2ccc(Nc3ncc(C(N)=O)c(NC4CC4)n3)cc2)CC1 [Cerdulatinib Hydrochloride]
**A:** inactive

**Q:** # lookup: test call for Cc1nc2cc(-c3nn(C(C)C)c4ncnc(N)c34)ccc2o1
**A:** inactive

**Q:** # lookup: test call for C[C@@H](N)c1ccc(C(=O)Nc2ccnc3[nH]ccc23)cc1 [Y-39983]
**A:** inactive

**Q:** # lookup: test call for Cc1cc(C(=O)NOCCO)c(Nc2ccc(I)cc2F)n(C)c1=O [AZD-8330]
**A:** inactive

**Q:** # lookup: test call for CCOc1cc2ncc(C#N)c(Nc3ccc(F)c(Cl)c3)c2cc1NC(=O)/C=C/CN(C)C [PELITINIB]
**A:** inactive

**Q:** # lookup: test call for CCn1cc(-c2ccnc3[nH]c(-c4cccc(CN(C)C)c4)cc23)c(-c2ccc(NC(=O)N(C)C)cc2)n1 [GSK-1070916]
**A:** inactive

**Q:** # lookup: test call for FC(F)(F)c1ccc(/C=C/c2nc(COc3ccc(CCCCn4ccnn4)cc3)co2)cc1 [MUBRITINIB]
**A:** inactive

**Q:** # lookup: test call for O=C(Cc1ccc(-c2ccc(OCCN3CCOCC3)cc2)cn1)NCc1ccccc1 [TIRBANIBULIN]
**A:** inactive

**Q:** # lookup: test call for O=C1NC(=O)[C@@H](c2cn3c4c(cccc24)CCC3)[C@@H]1c1c[nH]c2ccccc12 [TIVANTINIB]
**A:** inactive

**Q:** # lookup: test call for COc1cc2ncnc(Oc3cccc(NC(=O)Nc4cc(C(C)(C)C(F)(F)F)on4)c3)c2cc1OC [CEP-32496]
**A:** inactive

**Q:** # lookup: test call for CN(C[C@@H]1COCCO1)S(=O)(=O)Nc1ccc2ccc3ncc(-c4cnn(C)c4)cc3c(=O)c2c1 [MK-2461]
**A:** inactive

**Q:** # lookup: test call for CN1C/C=C/CCOc2cccc(c2)-c2ccnc(n2)Nc2cccc(c2)C1 [ZOTIRACICLIB]
**A:** active
